system_under_test: Tyrosine-protein kinase BTK (Homo sapiens, UniProt Q06187)
Sequence (Q06187 whole entry): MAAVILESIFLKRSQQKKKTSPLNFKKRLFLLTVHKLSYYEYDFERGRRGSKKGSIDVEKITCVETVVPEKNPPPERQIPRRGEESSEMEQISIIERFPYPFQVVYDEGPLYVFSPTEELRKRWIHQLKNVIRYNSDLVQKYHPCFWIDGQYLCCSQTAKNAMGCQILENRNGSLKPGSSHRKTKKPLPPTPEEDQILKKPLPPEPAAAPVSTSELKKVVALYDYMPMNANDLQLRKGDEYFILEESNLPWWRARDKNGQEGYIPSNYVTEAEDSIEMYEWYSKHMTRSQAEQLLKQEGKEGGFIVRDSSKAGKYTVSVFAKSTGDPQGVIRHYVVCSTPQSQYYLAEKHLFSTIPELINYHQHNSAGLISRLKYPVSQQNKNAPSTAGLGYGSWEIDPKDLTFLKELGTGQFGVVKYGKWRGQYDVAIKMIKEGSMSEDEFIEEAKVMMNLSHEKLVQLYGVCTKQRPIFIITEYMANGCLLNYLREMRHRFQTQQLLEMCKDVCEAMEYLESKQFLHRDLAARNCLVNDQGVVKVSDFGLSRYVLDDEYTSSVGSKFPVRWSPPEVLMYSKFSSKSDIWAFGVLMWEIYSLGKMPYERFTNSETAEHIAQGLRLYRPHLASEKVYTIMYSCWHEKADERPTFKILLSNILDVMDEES
pIC50: −log10 of the molar value.
Lab note: compare pIC50 against 7. Equal or greater, write rule met. Smaller, write rule not met.

smiles_entry	classification
Cc1c(NC(=O)c2cnc(C(C)(C)C)nc2)cccc1-c1cn(C)c(=O)c(Nc2ccc(C(=O)N3CCOCC3)cc2)n1	rule not met
Cc1c(NC(=O)c2ccc(C3(C)CC3)cc2)cccc1-c1cn(C)c(=O)c(Nc2ccc(C(=O)N3CCOCC3)cc2)n1	rule met
Cc1c(NC(=O)c2ccc(N(C)C)cc2)cccc1-c1cn(C)c(=O)c(Nc2ccc(C(=O)N3CCOCC3)cc2)n1	rule not met
Cc1c(NC(=O)c2ncc(C(C)(C)C)cn2)cccc1-c1cn(C)c(=O)c(Nc2ccc(C(=O)N3CCOCC3)cc2)n1	rule met
CCC(C)(C)c1ccc(C(=O)Nc2cccc(-c3cn(C)c(=O)c(Nc4ccc(C(=O)N5CCOCC5)cc4)n3)c2C)cc1	rule met
